Measured hGLP-1R EC50 (pM), cAMP, listed per entry for reference.
Molecular target: human GLP-1 receptor (human, UniProt P43220 24-463)
Assay: cell-based or functional assay
Starred links: 1 amine or outer side, 2 acyl side, 3 side chain; linkers in the order of their positions; H or OH if unused. Non-standard residues stand in square brackets, D forms with d. Groups on a side chain read outwards from the residue. No end group written: not given here. *: point of attachment. C20 diacid = O=C(O)CCCCCCCCCCCCCCCCCCC(=O)*; C18 diacid = O=C(O)CCCCCCCCCCCCCCCCC(=O)*; γGlu = O=C(O)[C@H](CCC(=O)[*:2])N[*:1]; αMeF = C[C@](N)(Cc1ccccc1)C(=O)O; AEEA = NCCOCCOCC(=O)O; Aib = CC(C)(N)C(=O)O

- Binder: "H[Aib]HGS[αMeF]TSDVSK[αMeF]LDSR[Aib]AK([AEEA-AEEA-γGlu-C18 diacid])DFVESIANT-NH2 (not fully specified) [Peptide 251]"
  Measurement unit: "pM"
  hGLP-1R EC50 (pM), cAMP: 79.8
- Binder: "H[Aib]QGS[αMeF]TSDVSK[αMeF]LDSRAAK([AEEA-AEEA-γGlu-γGlu-C20 diacid])D[αMeF]VQ[Aib]IANT-NH2 [Peptide 322]"
  Measurement unit: "pM"
  hGLP-1R EC50 (pM), cAMP: 68.3
